The origin of these recorded values is PubChem BioAssay.

Tested on: Lefty1
PROTOCOL: Lefty1 protein binding to printed compounds – biochemical, small-molecule microarray, 635/667 nm fluorescence, primary screen (AID 1139)
RECORDED CONDITIONS: fluorescence 635/667, higher = more signal

| COMPOUND | composite z-score |
| --- | --- |
| C=C(COC)C(=O)CC[C@H](OC(=O)c1ccccc1-c1ccccc1C(=O)O)c1ccc(OCCO)cc1 | 1.59 |
| C=CCNC(=O)[C@H]1[C@@H]2C(=O)O[C@@H](c3ccccc3)[C@@H](c3ccccc3)N2[C@@H](c2ccc(OCCO)cc2)[C@]12C(=O)N(C(=O)OCCOC)c1ccc(C#CC3=CCCCC3)cc12 | 0.949 |
| COc1ccc([Si](C)(C)[C@@H]2[C@@H](CC(=O)N(CCO)Cc3ccccc3)O[C@]3(C(=O)N(C)c4c(Br)cc(C)cc43)[C@H]2C)cc1 | 1.17 |
| COC(=O)[C@@]1(Cc2ccc(OC)cc2)[C@H]2c3cc(C(=O)N4CCCC4)n(Cc4ccc(C)o4)c3C[C@H]2CN1C(=O)c1ccccc1 | -0.211 |
| CC[C@@H]1[C@@H]2C3C(=O)N(CC)C(=O)C3CC(=O)[C@@H]2[C@H](c2ccc(C)cc2)N1S(=O)(=O)c1ccc(C)cc1 (some centres undefined) | 0.417 |
| CCCNC(=O)[C@@H]1c2ccccc2C(=O)N(CC23CC4CC(CC(C4)C2)C3)[C@H]1c1ccc(CO)cc1 | 0.798 |
| NCCCCCCNC(=O)[C@H]1C[C@H]2C(=O)N3CCC[C@H]3C(=O)N2[C@H]1c1ccc(O)cc1 | 0.918 |
| C[N+](C)(C)CCCC[C@@H]1NC(=O)[C@@H]2C[C@H](C(=O)O)[C@H](c3cccc(OCCO)c3)N2C1=O | 0.135 |
| O=C1O[C@H](c2ccccc2)[C@H](c2ccccc2)N2[C@H]1[C@@H](C(=O)N1CCN(c3ncccn3)CC1)[C@]1(C(=O)Nc3ccc(C#CCCO)cc31)[C@H]2c1ccc(OCCO)cc1 | 1.57 |
| NC(=O)[C@H]1[C@@H]2C(=O)O[C@@H](c3ccccc3)[C@@H](c3ccccc3)N2[C@@H](c2ccc(O)cc2)[C@]12C(=O)Nc1ccc(C#CC3(O)CCCCCC3)cc12 | 0.889 |
| COCCCNC(=O)[C@@]1(C)c2ccccc2C(=O)N(c2ccc(C)cn2)[C@H]1c1ccc(CO)cc1 | -0.939 |
| CCCC=C(CCC)[C@@H](NS(=O)(=O)c1cccc2cccnc12)c1ccc(C(=O)OC)cc1 | 0.162 |
| COC(=O)[C@@]1(Cc2ccc(OC)cc2)[C@H]2c3cc(C(=O)N(C)C)n(Cc4cc(F)c(F)c(F)c4)c3C[C@H]2CN1C(=O)c1ccccc1 | 0.0601 |
| COc1cc(C(O)C2C=CC3C(=O)N(C)C(=O)C3N2NC(=O)OC(C)(C)C)cc(OC)c1OC (centres undefined) | -0.338 |

----------
The compounds listed here are annotated with their composite z-score.
ASSAY SYSTEM: Calmodulin-1 (Homo sapiens) (UniProt P0DP23)
PROTOCOL: small molecules binding Ca-loaded calmodulin-1 – biochemical, small-molecule microarray, Cy5-labelled CALM1, plus calcium, artefact control for SMM control-protein annotation, profiling panel (AID 1112);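 further: score merges spot fluorescence with signal to noise from triplicate slides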
RECORDED CONDITIONS: Cy5-CALM1 binding fluorescence, higher = more signal

| COMPOUND | ASSAY SYSTEM | composite z-score |
| --- | --- | --- |
| CCCC=C(CCC)[C@@H](NC(=O)Cc1ccccc1)c1ccc(C(=O)OC)cc1 | Calmodulin-1 (Homo sapiens) (UniProt P0DP23) | 0.499 |
| O=C(Nc1cc(Br)ccc1C(=O)NCc1cccc(O)c1)c1ccccc1 | Calmodulin-1 (Homo sapiens) (UniProt P0DP23) | 0.22 |
| Cc1cc(C)c(C(O)C2C=CC3C(=O)N(c4ccccc4)C(=O)C3N2Nc2ccc([N+](=O)[O-])cc2)c(C)c1 (stereo not given) | Calmodulin-1 (Homo sapiens) (UniProt P0DP23) | 0.469 |
| CN1C(=O)C2C=CC(C(O)c3cccc4ccccc34)N(NC(=O)OC(C)(C)C)C2C1=O (stereo not given) | Calmodulin-1 (Homo sapiens) (UniProt P0DP23) | 1.43 |
| COc1ccccc1CN1C(=O)c2ccccc2[C@](Cc2ccccc2I)(C(=O)NCCN2CCOCC2)[C@@H]1c1ccc(CO)cc1 | Calmodulin-1 (Homo sapiens) (UniProt P0DP23) | -0.768 |

----------
PROTOCOL: growth of efflux-deficient E. coli DRC39 – strain DRC39, OD650, 48 h, E. coli filamentation inducers, primary screen (AID 1179);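 further: screen aims at cell division blockers that make cells filament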
RECORDED CONDITIONS: E. coli DRC39 delta-acrAB growth, higher = more signal, called active from +8 up or from −8 down
The compounds listed here are annotated with their z-score.

| STRUCTURE NOTATION | z-score |
| --- | --- |
| CC(C)N1C(=O)c2ccccc2[C@](C)(C(=O)O)[C@@H]1c1ccc(CO)cc1 | 0.421 |
| COCCOC(=O)N1C(=O)[C@@]2(c3cc(C#CCC(C(=O)OC)C(=O)OC)ccc31)[C@H](c1ccc(OCCO)cc1)N1[C@H](c3ccccc3)[C@H](c3ccccc3)OC(=O)[C@H]1[C@@H]2C(N)=O | -0.554 |
| COc1ccc([Si](C)(C)[C@@H]2[C@@H](CC(=O)N(CCO)Cc3ccccc3)O[C@]3(C(=O)N(Cc4ccc(N5CCOC5=O)cc4)c4ccccc43)[C@H]2C)cc1 | 0.307 |

----------
The compounds listed here are annotated with their composite z-score.
PROTOCOL: probe aWnt5a binding to arrayed compounds – biochemical, biotinylated probe, 635/667 nm fluorescence, primary screen (AID 1113);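 further: score merges 667 nm fluorescence intensity with signal-to-noise per printed feature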
RECORDED CONDITIONS: small-molecule microarray, higher = more signal

| COMPOUND | composite z-score |
| --- | --- |
| COc1cccc(C[C@H]2C[C@@H](CO[Si](C(C)C)(C(C)C)C(C)C)N3C(=O)[C@]4(C(C)=O)O[C@]23[C@H]2C(=O)N(C)C(=O)[C@H]24)c1 | -0.0721 |
| Cc1ccc(C(C)CC(O)C2C=CC3C(=O)N(Cc4ccccc4)C(=O)C3N2n2cnnc2)o1 (configuration not stated) | 0.688 |
| C=C(/C(=C/C[C@@H](OC(=O)c1ccncc1)c1cccc(OCCO)c1)c1cc(C(=O)OC)ccc1OC)C(C)C | -0.101 |
| COCCCNC(=O)[C@]1(Cc2ccccc2)N=C(c2ccc(OCCCO)cc2)O[C@@H]1c1ccccc1N=[N+]=[N-] | 0.008 |
| COC(=O)c1ccc(OC)c(/C=C\CC(CCc2ccccc2)OC(C)=O)c1 (configuration not stated) | -0.152 |
| Cc1cc(C)c(C(O)C2C=CC3C(=O)N(c4ccccc4)C(=O)C3N2Nc2ccc([N+](=O)[O-])cc2)c(C)c1 (configuration not stated) | -0.131 |
| [N-]=[N+]=NCc1ccccc1C[C@]1(C(=O)NCCN2CCOCC2)N=C(c2ccc(OCCCO)cc2)O[C@H]1c1ccccc1 | 0.0215 |

----------
The molecules listed here are annotated with their z-score.
ASSAY SYSTEM: NADPH oxidase 2 (Homo sapiens) (UniProt P04839)
Sequence (P04839 whole entry, looked up): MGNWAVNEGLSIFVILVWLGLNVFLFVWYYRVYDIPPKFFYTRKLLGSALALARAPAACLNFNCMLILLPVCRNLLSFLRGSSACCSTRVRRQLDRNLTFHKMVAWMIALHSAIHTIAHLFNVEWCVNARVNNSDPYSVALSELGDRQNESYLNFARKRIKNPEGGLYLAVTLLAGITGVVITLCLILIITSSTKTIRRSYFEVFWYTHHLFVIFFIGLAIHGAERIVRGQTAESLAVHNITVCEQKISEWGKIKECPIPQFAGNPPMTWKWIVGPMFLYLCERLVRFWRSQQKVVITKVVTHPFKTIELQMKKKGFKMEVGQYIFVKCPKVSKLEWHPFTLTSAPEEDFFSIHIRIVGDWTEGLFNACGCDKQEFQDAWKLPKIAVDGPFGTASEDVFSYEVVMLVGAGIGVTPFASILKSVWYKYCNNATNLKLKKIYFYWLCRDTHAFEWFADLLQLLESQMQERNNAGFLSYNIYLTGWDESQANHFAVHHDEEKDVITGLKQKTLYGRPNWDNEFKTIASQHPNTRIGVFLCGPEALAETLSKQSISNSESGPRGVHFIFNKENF
PROTOCOL: compounds shifting NOX2 Amplex Red fluorescence – cell-based, HEK293-NOX2, PMA-stimulated, NOX inhibitor project, primary screen (AID 1159); further: test concentration not given here
RECORDED CONDITIONS: 45 min, higher = more signal, called active from +8 up or from −8 down
Activity calls are given as the source filed them.

| MOLECULE | z-score |
| --- | --- |
| COC(=O)C(CC#Cc1ccc2c(c1)[C@]1(C(=O)N2)[C@H](c2ccc(O)cc2)N2[C@H](c3ccccc3)[C@H](c3ccccc3)OC(=O)[C@H]2[C@@H]1C(N)=O)C(=O)OC | 0.222 (inactive) |
| CN(C)C(=O)[C@@]1(CCC(=O)OC(C)(C)C)COC(c2ccc(OCCCO)cc2)=N1 | -0.0773 (inactive) |
| C[N+](C)(C)CCCCCCNC(=O)[C@@H]1C[C@@H]2C(=O)NCC(=O)N2[C@@H]1c1ccc(O)cc1 | 0.823 (inactive) |
| NC(=O)NCC#Cc1ccc2c(c1)[C@]1(C(=O)N2)[C@H](c2ccc(O)cc2)N2[C@H](c3ccccc3)[C@H](c3ccccc3)OC(=O)[C@H]2[C@@H]1C(=O)NC[C@H](O)c1ccccc1 | 0.251 (inactive) |
| Cc1ccc(-c2cccc(=O)o2)cc1 | 0.498 (inactive) |
| O=C(NCc1ccccc1)[C@]1(Cc2ccccc2)N=C(c2ccc(OCCCO)cc2)O[C@@H]1c1ccccc1 | 0.158 (inactive) |
| COC(=O)[C@@]1(Cc2ccc(F)cc2)[C@H]2c3cc(C(=O)N(C)C)n(CCSCCO)c3C[C@H]2CN1C(=O)c1ccccc1 | 0.746 (inactive) |
| CCCN1C(=O)[C@@H]2Cc3c([nH]c4ccccc34)[C@@H](c3cccc(O)c3)N2C1=O | -0.904 (inactive) |
| C[N+](C)(C)CCCCNC(=O)[C@H]1C[C@H]2C(=O)NCC(=O)N2[C@H]1c1ccc(O)cc1 | -1.51 (inactive) |
| C=CCNC(=O)[C@@H]1[C@H]2C(=O)O[C@H](c3ccccc3)[C@H](c3ccccc3)N2[C@H](c2ccc(O)cc2)[C@@]12C(=O)Nc1ccc(C#CCCO)cc12 | 0.422 (inactive) |
| C[N+](C)(C)CCCCCCNC(=O)[C@H]1C[C@H]2C(=O)N3CCC[C@H]3C(=O)N2[C@H]1c1cccc(OCCO)c1 | 1.18 (inactive) |
| OCCCC1=CC(c2cccs2)N(Cc2cccc(OC(F)(F)F)c2)CC1 (configuration not stated) | -0.257 (inactive) |
| CN1C(=O)C2C=CC(C(O)COCc3ccccc3)N(Nc3ccccc3)C2C1=O (configuration not stated) | -2.32 (inactive) |
| C=C(/C(=C/C[C@@H](OC(C)=O)c1ccccc1OCCO)c1cnc2ccccc2c1)C(C)C | -1.08 (inactive) |
| COc1ccc([Si](C)(C)[C@@H]2[C@@H](CC(=O)N3Cc4ccccc4C[C@H]3CO)O[C@]3(C(=O)N(Cc4cccc(N5CCCCC5=O)c4)c4ccccc43)[C@H]2C)cc1 | -1.63 (inactive) |
| C[C@@]1([C@@H](NC(=O)c2cccs2)c2ccc(-c3ccccc3)cc2)C[C@H]1C1CCCCC1 | -4.07 (inactive) |
| O=C1C[C@@](C(=O)NCc2ccccc2)(c2ccc([N+](=O)[O-])cc2)[C@@H](c2ccc(CO)cc2I)N1C1CCCCC1 | 1.23 (inactive) |
